Catalogue of Population Pyknosed Nuclei (%) values
tested on: HEK-293T; assay: Multiplex assay against HEK293T; format: toxicity, cell-based; details: human, 48 h, 1 µM, compound concentration 1 uM, replicate 2
Reply with just the number (in %).

Known results for compounds:
## Input I'd like to know its Population Pyknosed Nuclei (%). The compound in question is `COc1cc(-n2cnc3cc(-c4ccc(Cl)cc4)sc3c2=O)ccc1OCCN1CCCC1`
## Output 16

## Input Using the record for Cl.N#Cc1ccc2[nH]cc(CCCCN3CCN(c4ccc5oc(C(N)=O)cc5c4)CC3)c2c1 [VILAZODONE HYDROCHLORIDE] , report its Population Pyknosed Nuclei (%).
## Output 22

## Input Please look up its Population Pyknosed Nuclei (%): CN(C)CC#Cc1ccc(OCCCc2sc(N3CCc4cccc(C(=O)Nc5nc6ccccc6s5)c4C3)nc2C(=O)O)c(F)c1 [A-1155463]
## Output 13

## Input What Population Pyknosed Nuclei (%) value was documented for this compound, CN1CCCC(n2nc(Cc3ccc(Cl)cc3)c3ccccc3c2=O)CC1.Cl (stereo unspecified) [AZELASTINE HYDROCHLORIDE] ?
## Output 26

## Input Query (compound): Cc1nc(-c2ccc(-c3ccc(C(=O)N4CCc5cc6c(cc54)C4(CCN(C)CC4)CO6)cc3)c(C)c2)no1 [SB-224289] ; field requested: Population Pyknosed Nuclei (%)
## Output 22

***
## Input What value of measured Population Pyknosed Nuclei (%) is listed for O=C1NCN(c2ccccc2)C12CCN(CCCOc1ccc(F)cc1)CC2 [SPIRAMIDE] ?
## Output 13

## Input Record request: Population Pyknosed Nuclei (%) value, item COc1ncc(-c2ccc3nccc(-c4ccnnc4)c3c2)cc1NS(=O)(=O)c1ccc(F)cc1F [OMIPALISIB]
## Output 55

## Input Would you mind telling me what Population Pyknosed Nuclei (%) value was observed for CC[C@H](C)C(=O)O[C@H]1C[C@@H](C)C=C2C=C[C@H](C)[C@H](CC[C@@H]3C[C@@H](O)CC(=O)O3)[C@H]21 [LOVASTATIN] ?
## Output 11

## Input I am curious: what Population Pyknosed Nuclei (%) value has been reported for `Cn1cc(-c2[nH]c3cc(NC(=O)[C@H](N)C4CCCCC4)cc4c3c2C=NNC4=O)cn1` ?
## Output 75

## Input I have this compound here, `CNc1nc(NCc2ccc(NS(C)(=O)=O)cc2Cl)cc(-c2ccccn2)n1` , and I need its recorded Population Pyknosed Nuclei (%).
## Output 18

* * *

test system: U2OS; experiment: Multiplex assay against U2OS; assay type: toxicity, cell-based; conditions: human, 12 h, 1 µM, compound concentration 1 uM, replicate 2
Output YES for Population Membrane Permeable-Phenotype (%) not less than 6%; output NO otherwise.

Known results for molecules:
## Input Population Membrane Permeable-Phenotype (%) >= 6% for `Cc1nc(-c2ccc(-c3ccc(C(=O)N4CCc5cc6c(cc54)C4(CCN(C)CC4)CO6)cc3)c(C)c2)no1` ?
## Output YES

## Input Record `COc1cc(-n2cnc3cc(-c4ccc(Cl)cc4)sc3c2=O)ccc1OCCN1CCCC1` ; criterion: Population Membrane Permeable-Phenotype (%) no lower than 6%. Met?
## Output YES

## Input Kindly determine if Population Membrane Permeable-Phenotype (%) recorded for `C[C@@]1(C(=O)Nc2ccc(F)nc2)CCCN1c1nc(Nc2cc(C3CC3)n[nH]2)c2cccn2n1` is above or exactly 6%.
## Output YES

## Input For this molecule, is measured Population Membrane Permeable-Phenotype (%) 6% or higher? CN1CCC[C@@H]1CCO[C@](C)(c1ccccc1)c1ccc(Cl)cc1.O=C(O)/C=C/C(=O)O [CLEMASTINE FUMARATE]
## Output NO

## Input Form field: Population Membrane Permeable-Phenotype (%) at least 6%? Entry: `OC1(c2ccc(Cl)cc2)CCN(Cc2c[nH]c3ccccc23)CC1`
## Output NO

## Input Population Membrane Permeable-Phenotype (%) >= 6% for `Cc1[nH]c(/C=C2\C(=O)Nc3ccc(S(=O)(=O)N(C)c4cccc(Cl)c4)cc32)c(C)c1C(=O)N1CCN(C)CC1` ?
## Output YES

## Input Could you please find out whether `Cc1c(-c2ccc(O)cc2)n(Cc2ccc(OCCN3CCCCCC3)cc2)c2ccc(O)cc12` has Population Membrane Permeable-Phenotype (%) that meets 6% or exceeds it?
## Output NO

## Input For this molecule, is measured Population Membrane Permeable-Phenotype (%) 6% or higher? `CNc1nc(NCc2ccc(NS(C)(=O)=O)cc2Cl)cc(-c2ccccn2)n1`
## Output NO

# ---- query molecule ----
## Input Could you tell me if the measured Population Membrane Permeable-Phenotype (%) of `Cc1nc(Nc2n[nH]c3c2CN(C(=O)N[C@H](CN(C)C)c2ccccc2)C3(C)C)c2sccc2n1` reaches 6% or more?
## Output NO

* * *

system: Fibroblast; assay: Multiplex assay against human fibroblast; format: toxicity, cell-based; conditions: 12 h, 1 µM, compound concentration 1 uM, replicate 2
QUANTITY NAME: Population Fragmented Nuclei (%)
// return numeric value only (unit: %, not printed)

## Input What Population Fragmented Nuclei (%) value was documented for this compound, `CC(C)(O)CNc1ncc(-c2ccnc(Nc3ccnc(Cl)c3)n2)c(CC2CC2)n1` ?
## Output 9

## Input Fill in the blank: the reported Population Fragmented Nuclei (%) of `C[C@@]1(C(=O)Nc2ccc(F)nc2)CCCN1c1nc(Nc2cc(C3CC3)n[nH]2)c2cccn2n1` is ____.
## Output 75

## Input Need Population Fragmented Nuclei (%) of `Cc1nc(-c2cn3c(n2)-c2ccc(-c4cnn(C(C)(C)C(N)=O)c4)cc2OCC3)n(C(C)C)n1` , thanks.
## Output 61

## Input # get_value(readout='Population Fragmented Nuclei (%)', item= `c1cn2cc(-c3ccc4cn[nH]c4c3)nc(Nc3ccc(N4CCOCC4)cc3)c2n1` )
## Output 16

## Input Query: Population Fragmented Nuclei (%); subject: CN(C)C(=O)N[C@H]1CC[C@H](CCN2CCN(c3cccc(Cl)c3Cl)CC2)CC1.Cl [CARIPRAZINE HYDROCHLORIDE]
## Output 7

## Input # lookup: Population Fragmented Nuclei (%) of `CN(C)C(=O)/C(C#N)=C/c1ccc(-c2nc3cnc4[nH]ccc4c3n2C2CCCCC2)o1`
## Output 4

---
## Input Item under review: CC(C)NCC(O)COc1ccc(CCOCC2CC2)cc1.Cl (stereo not drawn) [BETAXOLOL HYDROCHLORIDE] . Reported Population Fragmented Nuclei (%)?
## Output 2

## Input Give the measured Population Fragmented Nuclei (%) of CN1CCC[C@@H]1CCO[C@](C)(c1ccccc1)c1ccc(Cl)cc1.O=C(O)/C=C/C(=O)O [CLEMASTINE FUMARATE] .
## Output 15

* * *

Listing: Population Mitochondria Different-Phenotype (%) of selected compounds
test system: U2OS; assay: Multiplex assay against U2OS; type: toxicity, cell-based; details: human, 48 h, 1 µM, compound concentration 1 uM, replicate 1
Express your answer in %, writing the number without its unit.

## Input Which Population Mitochondria Different-Phenotype (%) value belongs to CC(C)NCC(O)COc1ccc(CCOCC2CC2)cc1.Cl (stereo not drawn) [BETAXOLOL HYDROCHLORIDE] ?
## Output 7

More entries:
## Input What Population Mitochondria Different-Phenotype (%) value was documented for this compound, `CC[C@H](C)C(=O)O[C@H]1C[C@@H](C)C=C2C=C[C@H](C)[C@H](CC[C@@H]3C[C@@H](O)CC(=O)O3)[C@H]21` ?
## Output 8

## Input Value lookup for Population Mitochondria Different-Phenotype (%); key = `c1cn2cc(-c3ccc4cn[nH]c4c3)nc(Nc3ccc(N4CCOCC4)cc3)c2n1`
## Output 14

* * *

system: U2OS; experiment: Incucyte cell viability with U2OS; type: toxicity, cell-based; settings: human, 6 h, 10 µM, compound concentration 10 uM, replicate number 2, timepoint 6 hours; also: filed as whole numbers so only -1 and 0 and 1 occur
Where a SMILES comes first, the peptide text is derived from it. [ ]: non-standard residue; d: D form. Arg(Me) = CNC(=N)NCCC[C@H](N)C(=O)O; d4Pal = N[C@H](Cc1ccncc1)C(=O)O; azaGly = NNC(=O)O
QUANTITY NAME: Growth Rate
Please give only the number in your answer, with no unit.

Some compounds with known Growth Rate results, for comparison:
## Input Test system U2OS; read-out Growth Rate; what value for `COc1cc(-c2cn([C@H]3CCc4c(F)cccc4N(CC(F)(F)F)C3=O)nn2)ccc1-n1cnc(C)c1` ?
## Output 1

## Input Return Growth Rate measured with U2OS given this compound: CNC(=N)NCCC[C@H](NC(=O)[C@H](CC(C)C)NC(=O)NNC(=O)[C@H](Cc1ccccc1)NC(=O)[C@H](CO)NC(=O)[C@H](CC(N)=O)NC(=O)[C@@H](Cc1ccncc1)NC(=O)[C@H](N)Cc1ccc(O)cc1)C(=O)N[C@@H](Cc1ccccc1)C(N)=O [KISS1-305] (H-[dY][d4Pal]NSF[azaGly]L[Arg(Me)]F-NH2)
## Output 1

// next item, Growth Rate requested
## Input What measured Growth Rate is associated with N#CC(Cc1ccc(O)cc1)c1ccc(O)cc1 (stereo not drawn) on U2OS?
## Output 0
